Hello, the source for this data is ChEMBL document CHEMBL1671722, in case you need it.

test system: Enterococcus faecalis; assay: Antimicrobial activity against vancomycin-resistant Enterococcus faecalis by broth microdilution method; format: functional
Measure: MIC50 (µg/mL)
Give bare numbers, in µg/mL.

CCCCCCCCCC(=O)N[C@@H](Cc1c[nH]c2ccccc12)C(=O)N[C@H](CC(N)=O)C(=O)N[C@@H](CC(=O)O)C(=O)N[C@@H]1C(=O)NCC(=O)N[C@@H](CCCN)C(=O)N[C@@H](CC(=O)O)C(=O)N[C@H](C)C(=O)N[C@@H](CC(=O)O)C(=O)NCC(=O)N[C@H](CO)C(=O)N[C@@H]([C@H](C)CC(=O)O)C(=O)N[C@@H](CC(=O)c2ccccc2N)C(=O)O[C@@H]1C: 0.5

Prompt: Record lookup: for Enterococcus faecalis, what MIC50 belongs to `c1cc2cc(-c3ccc(-c4cc5ccc(C6=NCCCN6)cc5[nH]4)cc3)[nH]c2cc1C1=NCCCN1` ?
Completion: 0.015
